System: HCC1395;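 note: growth inhibition of HCC1395 cells, read out by a cell viability assay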
Test summary: cells
Type: functional, cell-based
Condition summary: Homo sapiens
Description: SANGER: Inhibition of human HCC1395 cell growth in a cell viability assay.
pIC50: −log10 of the molar value.
Observation type: pIC50

smiles_data=CC(C)=CC[C@@H](O)C1=CC(=O)c2c(O)ccc(O)c2C1=O val=4.80
smiles_data=C/C(O)=C(\C#N)C(=O)Nc1cc(Br)ccc1Br val="< 4.80"
smiles_data=CCNC(=O)c1noc(-c2cc(C(C)C)c(O)cc2O)c1-c1ccc(CN2CCOCC2)cc1 val="< 6.59"
smiles_data=Cn1c(=O)n(-c2ccc(C(C)(C)C#N)cc2)c2c3cc(-c4cnc5ccccc5c4)ccc3ncc21 val=6.16
smiles_data=O=c1[nH]c2ccccc2n1C1CCN(Cc2ccc(-c3nc4cc5[nH]cnc5cc4nc3-c3ccccc3)cc2)CC1 val="< 5.59"
smiles_data=CC(=O)c1c(C)c2cnc(Nc3ccc(N4CCNCC4)cn3)nc2n(C2CCCC2)c1=O val="< 5.40"
smiles_data=Cn1cc(/C=C2\C(=O)Nc3cccnc32)c2ccccc21 val="< 5.70"
smiles_data=NC(=O)c1ncn([C@@H]2O[C@H](COP(=O)(O)O)[C@@H](O)[C@H]2O)c1N val="< 2.70"
